# assayDetails: CACO-2 permeability
# Assay type: in vitro ADME
# experimentalContext: human, Caco-2, pH 7.4
measurementKind: efflux ratio at 120 min, 2 µM

Quick note, efflux ratio at 120 min, 2 µM for COc1cc2nc(-c3cc(C)oc3C)cc(NCC3CCN(c4ncc(C(=O)NO)cn4)CC3)c2cc1OC [CM-1758] landed at > 1050

Quick note, efflux ratio at 120 min, 2 µM for COc1cc2nc(-c3ccc(C)o3)cc(NCC3CCN(c4ncc(C(=O)NO)cn4)CC3)c2cc1OC [CM-444] landed at > 1050

* * *

# targetSystem: hERG potassium channels (Homo sapiens)
# Sequence (Q12809 whole entry): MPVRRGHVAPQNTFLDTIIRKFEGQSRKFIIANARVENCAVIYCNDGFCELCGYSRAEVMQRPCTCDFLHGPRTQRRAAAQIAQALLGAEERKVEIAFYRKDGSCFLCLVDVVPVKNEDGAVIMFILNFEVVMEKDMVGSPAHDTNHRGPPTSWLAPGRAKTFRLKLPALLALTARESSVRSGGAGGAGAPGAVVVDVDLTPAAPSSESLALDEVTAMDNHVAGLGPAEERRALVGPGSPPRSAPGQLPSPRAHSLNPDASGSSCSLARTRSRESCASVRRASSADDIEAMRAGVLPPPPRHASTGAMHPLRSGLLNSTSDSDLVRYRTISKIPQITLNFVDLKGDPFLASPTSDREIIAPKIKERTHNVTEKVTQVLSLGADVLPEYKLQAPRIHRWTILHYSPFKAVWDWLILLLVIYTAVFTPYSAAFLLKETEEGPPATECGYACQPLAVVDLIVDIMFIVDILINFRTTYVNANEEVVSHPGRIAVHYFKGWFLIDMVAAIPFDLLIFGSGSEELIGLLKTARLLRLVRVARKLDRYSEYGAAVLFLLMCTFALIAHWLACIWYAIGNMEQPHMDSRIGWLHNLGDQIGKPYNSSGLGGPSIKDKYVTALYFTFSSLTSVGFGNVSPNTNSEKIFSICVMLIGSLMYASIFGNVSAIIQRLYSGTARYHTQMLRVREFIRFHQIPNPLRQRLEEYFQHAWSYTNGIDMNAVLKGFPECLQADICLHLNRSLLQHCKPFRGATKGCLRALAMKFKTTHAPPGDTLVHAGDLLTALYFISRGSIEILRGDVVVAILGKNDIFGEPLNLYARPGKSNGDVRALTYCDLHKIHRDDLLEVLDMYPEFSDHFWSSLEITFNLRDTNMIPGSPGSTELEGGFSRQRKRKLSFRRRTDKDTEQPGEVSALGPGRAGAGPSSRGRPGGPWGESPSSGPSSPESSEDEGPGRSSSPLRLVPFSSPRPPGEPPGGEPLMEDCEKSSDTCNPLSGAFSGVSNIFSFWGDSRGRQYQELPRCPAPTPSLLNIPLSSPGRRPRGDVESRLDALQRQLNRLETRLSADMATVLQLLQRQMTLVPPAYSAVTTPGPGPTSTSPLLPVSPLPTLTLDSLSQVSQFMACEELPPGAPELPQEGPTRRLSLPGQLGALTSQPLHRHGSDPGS
# assayDetails: hERG blockade assay (whole-cell patch clamp, CHO cells)
# experimentalContext: read-out: hERG binding: IC50
measurementKind: pIC50
Please report pIC50 as the negative decimal logarithm of the molar concentration, giving only the number.

Quick note, pIC50 for "COc1cc2nc(-c3ccc(C)o3)cc(NCC3CCN(c4ncc(C(=O)NO)cn4)CC3)c2cc1OC" landed at 4.77

Quick note, pIC50 for "COc1cc2nc(-c3cc(C)oc3C)cc(NCC3CCN(c4ncc(C(=O)NO)cn4)CC3)c2cc1OC" landed at 5.31
